# System: DU-145
# ASSAY_COMMENT: NCI tumour cell line growth inhibition, 48 h
The source made the active and inactive calls. Cut-off read from the data, not from the text of the source: active = GI50 up to about 1.1 µM and inactive = higher.
Please answer using one outcome listed in Yes = active, No = inactive

Example results:
COMPOUND	ASSIGNED_CATEGORY
Cn1c(=O)c2c(nc3sc4ncccc4c(=O)n32)n(C)c1=O	No
CCOC(=O)C1(C(=O)OCC)C[C@]23OCCC(=O)[C@H]2[C@H]2C(=O)OC(C)(C)O[C@]23C1	No
O=C(NC(=O)c1ccccc1)OC(c1ccccc1)C1CO1 (stereo not drawn)	No
CSc1cc(-c2ccccn2)nc(-c2ccccn2)c1	Yes

query: GET /call?item= CNc1ccc(C)cc1S(=O)(=O)c1ccccc1[N+](=O)[O-] returns the recorded outcome of this test.
result: No

query: Same read-out for COc1cc(/C=C2\C[C@H]3[C@@H]4CCC5=CC(=O)CC[C@]5(C)[C@H]4CC[C@]3(C)C2=O)cc(OC)c1OC ?
result: No

query: Same read-out for CC(=O)O[C@H]1CC[C@@]2(C)C(=CC[C@@H]3[C@@H]2CC[C@]2(C)c4c(cc(C#N)c(=N)n4C(C)=O)C[C@@H]32)C1 ?
result: No
